Property: LD50 at 336 h; scope: individual compounds
Test: Acute toxicity in mice
Settings: mouse, in vivo, po; mice of both sexes, 20 g, single dose p.o., 14 days observation; read-out: DL50 p.o.

*Q* Give its LD50 at 336 h value. Item: CC(CC1(c2ccccc2)c2ccccc2N(C=O)C1C)N(C)C (single isomer, unassigned; (-)) [(-)-Enantiomeres]
*A* ~560 mg/kg

*Q* Endpoint output: LD50 at 336 h of CC(CC1(c2ccccc2)c2ccccc2N(C=O)C1C)N(C)C (racemic) [Racemat] . Value?
*A* 545 mg/kg

*Q* Find the recorded LD50 at 336 h belonging to CC(CC1(c2ccccc2)c2ccccc2N(C=O)C1C)N(C)C (single isomer, unassigned; (+)) [(+)-Enantiomeres] and report it.
*A* ~500 mg/kg
